target_entity: Phenylethanolamine N-methyltransferase (Homo sapiens) (UniProt P11086)
Sequence (P11086 whole entry, looked up): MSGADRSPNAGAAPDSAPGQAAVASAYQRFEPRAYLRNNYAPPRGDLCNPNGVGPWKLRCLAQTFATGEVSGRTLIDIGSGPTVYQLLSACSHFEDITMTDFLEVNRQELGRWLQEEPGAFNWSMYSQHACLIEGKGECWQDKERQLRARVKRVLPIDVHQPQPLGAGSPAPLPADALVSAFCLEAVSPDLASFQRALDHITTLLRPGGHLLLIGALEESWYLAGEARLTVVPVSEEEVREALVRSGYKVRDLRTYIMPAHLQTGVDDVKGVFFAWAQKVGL
test_method_notes: Primary Screen for Target Class Profiling of Small Molecule Inhibitors of Methyltransferases; further: on the % scale 0 is the no-effect control and ±100 the full control effect
details: purified enzyme, MTase-Glo SAH luminescence; measured here: PNMT inhibition; at 40 µM; stronger effect = lower value
The campaign covered roughly 25,000 compounds. About 970 (3.9%) were called active. Inconclusive results (about 8%) are left out. The sample holds actives, similar compounds and a random draw of the others, so the mix is not that of the screen.
Below is a list of entries, each paired with its recorded activity change, negative = inhibition value.
Write down the numeric answer in % and omit the unit.

Completed entries (count: 8):
CC(C)CCn1c(=O)c2ccc(C(=O)NC(C)C)cc2n2c(=O)n(CC(=O)Nc3ccccc3)nc12 ... 3.82
Cc1cnc(-c2ccccc2)n1CCNC(=O)CCC1CCCC1 ... -3.43
Cc1cccc(CSc2nnc3n(CC(C)C)c(=O)c4ccccc4n23)c1 ... 4.42
Cc1ccc(N2C(=O)c3cc(-c4ccco4)nn3CC2(C)C(=O)NC2CCCCC2)cc1Cl (stereo not given) ... -7.34
CCOC(=O)c1ccc(N2C(=O)CSc3c(c4ccccc4n3C)C2C(=O)NCc2ccccc2)cc1 (stereo not given) ... 10.2
CC1(C)CCC(C)(C)c2cc3c(cc21)Sc1ccccc1N=C3c1ccc(C(=O)O)cc1 ... 3.91
Cc1ccc(OCCC2CCN(C(=O)Cn3cnc4c3c(=O)n(C)c(=O)n4C)C2)cc1 (stereo not given) ... -7.16
Cc1ccc(NC(=O)Cn2nc3n(C(C)C)c(=O)c4ccc(C(=O)NC5CCCCC5)cc4n3c2=O)cc1 ... 2.8

Reported activity change, negative = inhibition for CC(C)Cn1c(=O)c2ccccc2n2c(=O)n(Cc3ccccc3Cl)nc12 : what is it?
3.52

Field request: activity change, negative = inhibition | item: CCC1CCCCN1C(=O)Cn1c(=O)oc2cc(S(=O)(=O)N3CCCC3)ccc21 (stereo not given)
-0.075

I'd like to know its activity change, negative = inhibition. The compound in question is CC(C)CCN1CC2(CCCN(C(=O)c3ccn(C)c(=O)c3)C2)CCC1=O (stereo not given)
-27

State the recorded activity change, negative = inhibition for this entry: O=C1NC(=NC2CCCC2)C2(CCCN([S+](=O)([O-])c3ccccc3)C2)N1c1cccnc1 (stereo not given)
-21.7

If you can, please state the reported activity change, negative = inhibition value of CC1(C(=O)NC2CCCCC2)Cn2c(nc3ccccc32)C(=O)N1CCCc1ccccc1 (stereo not given) .
-1.29
